- Test: NCI Yeast Anticancer Drug Screen. Data for the cln2 rad14 strain (AID 165);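 also: 0% = growth equal to vehicle treated cultures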
- Experimental parameters: S. cerevisiae cln2 rad14 strain, at 50.0 µM, active compounds read high
The panel holds about 79,000 compounds, 15% with a hit somewhere; the sample as a whole holds those more often.
Rule: TRUE for growth inhibition not less than -10%, FALSE for anything less.

| Molecule | Category |
| --- | --- |
| CC(C)(C)C([O-])=C1C(=O)c2ccccc2C1=O.CC(C)(C)C([O-])=C1C(=O)c2ccccc2C1=O.CC[O-].CC[O-].[Ti+4] | TRUE |

[in] Record Cc1cc(C)c(F)c(C)c1N ; criterion: growth inhibition no lower than -10%. Met?
[out] FALSE

[in] Record O=C1COc2cc(O)cc(O)c21 ; criterion: growth inhibition no lower than -10%. Met?
[out] TRUE

[in] Record O=[N+]([O-])c1ccccc1C=Nc1ccc2nc(SCc3ccccc3)sc2c1 ; criterion: growth inhibition no lower than -10%. Met?
[out] TRUE

[in] Record c1cncc(CCc2ccncc2)c1 ; criterion: growth inhibition no lower than -10%. Met?
[out] TRUE

[in] Record CC1(C)C=Cc2c(cc(O)c3c(=O)c4cc(Cl)ccc4[nH]c23)O1 ; criterion: growth inhibition no lower than -10%. Met?
[out] FALSE

* * *

- Test: NCI Yeast Anticancer Drug Screen. Data for the rad50 strain (AID 155);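 also: 0% = growth of vehicle-only cultures of the same strain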
- Experimental parameters: S. cerevisiae rad50 strain growth inhibition; at 50.0 µM; active compounds read high
Compounds without any hit were thinned out: in the full panel of roughly 79,000, 15% have a hit.
Exercise: for every item that follows, state its recorded growth inhibition.
One number for each entry, in %.

Consider the reported growth inhibition for these molecules:
| Molecule | growth inhibition [%] |
| --- | --- |
| CCCc1oc(C)cc1CC | 0.45 |
| Cc1cccc(NC(=O)c2ccc(Cl)c(Cl)c2)c1 | 11.3 |
| O=C1CN(Cc2ccccc2)CCO1 | 4.95 |

List growth inhibition for every entry below, keeping the order given.
1. Cn1nc(-c2ccccc2)c(C(=O)/C=C/c2ccccc2)c(N2CCCC2)c1=O
2. O=C1OC(c2ccc(Cl)cc2)=C/C1=C/c1ccccc1O
3. Cn1c(=O)c(Cl)c(N=[N+]=[N-])c2ccccc21
4. CCOC(=O)/C(Cc1cnc2ccccc2n1)=N\O

[out]
-22.1
-15.8
45.1
-1

* * *

Exercise: for every item that follows, state its recorded growth inhibition.
- Test: NCI Yeast Anticancer Drug Screen. Data for the mec2-1 strain (AID 157)
- Experimental parameters: S. cerevisiae mec2-1 strain, at 50.0 µM, active compounds read high
This is part of a sample that, as a whole, favours compounds with a hit. Of some 79,000 tested, about 15% had one in any assay.
Numbers only, in %.

Consider the reported growth inhibition for these molecules:
| Molecule | Property label | Recorded measurement |
| --- | --- | --- |
| c1ccc(Cc2ncc(-c3ccccc3)cc2-c2ccccc2)cc1 | growth inhibition | -14.8 |
| CC(=O)Nc1cc2[nH]c(=O)c3cc(Cl)ccc3c2cc1[N+](=O)[O-] | growth inhibition | 36.1 |
| O=c1oc2ccccc2cc1-n1nnc2ccccc21 | growth inhibition | 11.1 |
| O=S1(=O)C2CCC(Br)C1CCC2Br (configuration not stated) | growth inhibition | 13.8 |
| Nc1ccc(S(=O)(=O)N(CCO)CCO)cc1 | growth inhibition | -28.2 |

List growth inhibition for every entry below, keeping the order given.
1. O=C(O)C(Cc1c[nH]c2ccccc12)Nc1ccc([N+](=O)[O-])cc1[N+](=O)[O-] (configuration not stated)
2. CCc1cc2c(oc3cc(C)ccc32)c(=O)n1C
3. CC(=O)c1cc(Cl)ccc1OCC(O)CNc1ccc(Cl)cc1C(=O)c1ccccc1 (configuration not stated)
4. CC(C)=NNC(=O)Nc1cccc(C)c1C
5. CC(=O)C1C(=O)C(=O)N(c2ccc(F)cc2)C1=O (configuration not stated)
6. CCCCCCc1ccccn1

[out]
[-3.95, -7.7, 37.6, 15.2, -15.5, 9.3]

[in] Entry O=C(O)CCSc1ccccc1 : reported growth inhibition = ?
[out] -23.4

* * *

- Test: NCI Yeast Anticancer Drug Screen. Data for the bub3 strain (AID 167)
- Experimental parameters: S. cerevisiae bub3 mutant strain, at 50.0 µM, active compounds read high
About 79,000 compounds went through this panel and 15% of them were active in at least one assay; those are over-represented in the sample as a whole.
Exercise: for every item that follows, state its recorded growth inhibition.
Answers are plain numbers, in %.

Consider the reported growth inhibition for these molecules:
| Molecule | growth inhibition / % |
| --- | --- |
| CCCCS/C=C\C(=O)OCC | 0.15 |
| Clc1ccc(Cl)c2c(Br)cncc12 | 17.5 |
| Oc1ccc(-c2c3ccccc3c(-c3ccc(OCCBr)cc3)c3ccccc23)cc1 | -11.3 |
| CCOC(C)C=O (stereo not drawn) | -7.6 |
| [N-]=[N+]=Nc1ccccc1C(=O)NCCCNC(=O)c1ccccc1N=[N+]=[N-] | 19.4 |

List growth inhibition for every entry below, keeping the order given.
1. O=C1CN(c2ccccc2)C(=O)CN1/N=C/c1ccc(O)c(O)c1
2. c1ccc(C2=NN3CN(N2)c2ccccc2OCCCOc2ccccc23)cc1
3. CSC(/C=C/c1ccccc1)=Nc1ccccc1
4. CCCCCCCCCCCCS(=O)(=O)CCC(=O)c1ccco1
5. CCOC(=O)C(=Cn1ccc(=O)[nH]c1=S)C(=O)OCC
6. CC(C)n1ncc2c(N)ncnc21

[out]
-2.55
18.3
23.6
6.55
-11.6
21.4

List growth inhibition for every entry below, keeping the order given.
1. CN(C)CCNC(=O)c1cc([N+](=O)[O-])cn1C
2. Cc1cc(C)c2ccccc2n1

[out]
1.25
-5.1

* * *

- Test: NCI Yeast Anticancer Drug Screen. Data for the sgs1 mgt1 strain (AID 161);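 also: 0% = growth of cultures given vehicle only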
- Experimental parameters: S. cerevisiae sgs1 mgt1 strain, at 50.0 µM, active compounds read high
About 79,000 compounds went through this panel and 15% of them were active in at least one assay; those are over-represented in the sample as a whole.
Property label: growth inhibition (%)
Answers are plain numbers, in %.

Consider the reported growth inhibition for these compounds:
| Compound | Property label | Recorded measurement |
| --- | --- | --- |
| CC(=O)NC1=N/C(=C\c2ccc(Cl)cc2)C(=O)N1/C=C1\C(=O)Oc2ccccc2C1=O | growth inhibition | 24.9 |
| COc1c(C)c2c(c(Br)c1N)COCO2 | growth inhibition | -10.7 |

List growth inhibition for every entry below, keeping the order given.
1. CNc1ncnc2n[nH]nc12
2. O=C1OC(c2ccc(Cl)cc2)=C/C1=C/c1ccccc1O
3. CC(Cl)(CO)CCl (stereo not given)
4. COc1ccc(C(=O)/C(Br)=C\C(=O)O)cc1
5. CCCCCCNC(=O)CCC(NC(=O)c1ccc(N(C)Cc2cnc3nc(N)nc(N)c3n2)cc1)C(=O)NCCCCCC (stereo not given)

[out]
1. -12.1
2. -1.15
3. -2.65
4. 5.4
5. 19.1

* * *

Exercise: for every item that follows, state its recorded growth inhibition.
- Test: NCI Yeast Anticancer Drug Screen. Data for the rad50 strain (AID 155);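 also: 0% = growth of vehicle-only cultures of the same strain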
- Experimental parameters: S. cerevisiae rad50 strain growth inhibition; at 50.0 µM; active compounds read high
Compounds without any hit were thinned out: in the full panel of roughly 79,000, 15% have a hit. *1 amine or outer side, *2 acyl side, *3 side chain or, on linkers, in order; H or OH if unused. Where a SMILES comes first, the peptide text is derived from it. Bridges are numbered along the chain shown (N, C = ends). [ ]: non-standard residue; d: D form. The star is where a group is joined. X16 = CC(C)C(C)C(C(=O)[*:2])N(C)[*:1]; Picolinoyl(3-OH) = O=C(c1ncccc1O)*; NMePhg = CN[CH](C(=O)O)c1ccccc1; Hyp = O=C(O)[CH]1C[CH](O)CN1; Sar = CNCC(=O)O
Answers are plain numbers, in %.

Consider the reported growth inhibition for these molecules:
| Molecule | Unit spec | Recorded measurement |
| --- | --- | --- |
| COc1ccc(C(=O)/C(Br)=C\C(=O)O)cc1 | % | 16.8 |
| O=c1[nH]c2nc[nH]c(=O)c2[nH]1 | % | 0.25 |
| CC1CN=C(Nc2ccc(S(N)(=O)=O)cc2)S1 (stereo not drawn) | % | -21.2 |
| O=C(O)c1ccccc1C(=O)OC1CC2C=CC1C21CC1 (stereo not drawn) | % | -12.2 |
| CCCNC(=O)Cn1c(C)cc2ccccc21 | % | 6.55 |

List growth inhibition for every entry below, keeping the order given.
1. [O-]c1c[n+](-c2cc(Cl)ccc2Cl)no1
2. CCOc1ccc(Nc2nc(C)c(C(=O)CC(=O)C(=O)Nc3ccc(C(C)C)cc3C(C)C)s2)cc1
3. C[n+]1ccccc1/C=C/c1ccc([N+](=O)[O-])cc1
4. CN(N)C(=O)NCCCl
5. Br[C@H]1CC2CCC1C2 (stereo partly drawn)
6. CCN(CC)CCCC(C)Nc1cc(C)c2nc(C)cc(C)c2c1C (stereo not drawn)
7. COc1ccc(/C=C/c2onc3c(=O)n(C)nc(-c4ccccc4)c23)cc1

[out]
11.2
-31.2
9
-9.1
23.1
-22.1
-22.4

List growth inhibition for every entry below, keeping the order given.
1. Cn1cnc(=S)c2ccccc21
2. CC(C)CC1NC(=O)C(NC(=O)c2ncccc2O)C(C)OC(=O)C(c2ccccc2)N(C)C(=O)C(C)NC(=O)C(C(C)C(C)C)N(C)C(=O)CN(C)C(=O)C2CC(O)CN2C1=O (stereo not drawn) ({Picolinoyl(3-OH)}-TL[Hyp][Sar][X16]A[NMePhg]; ester 1-C; configuration not given here)

[out]
[-11, 15.8]

List growth inhibition for every entry below, keeping the order given.
1. COc1cc(-c2oc3ccccc3c(=O)c2O)cc(OC)c1OC
2. COC1CCC2C(C1)C(C1CCCCC1)C1CCCCC1C2C1CCCCC1 (stereo not drawn)
3. CN(C)C(=O)Nc1cccc(OC(=O)NC2CC2)c1
4. OC1(CSc2ccccc2)CCCCC1

[out]
1. -29.6
2. -1.1
3. 4.4
4. 11.1

List growth inhibition for every entry below, keeping the order given.
1. CC(=O)Oc1cc(I)cc(C(=O)O)c1
2. OCC1OC(Nc2ccc(F)cc2)C(O)C1O (stereo not drawn)
3. O=C1C2C3C=C4c5ccccc5N(c5ccccc5)C4(C2C(=O)N1c1ccc([N+](=O)[O-])cc1)[C@H]1C(=O)N(c2ccc([N+](=O)[O-])cc2)C(=O)[C@@H]31 (stereo partly drawn)

[out]
[-10, 2.95, 14.7]
